System: HCC-2998 colon
Assay: NCI tumour cell line growth inhibition, 48 h

- molecule: "CC(C)(C)OC(=O)N(CCCN)CCCCN(CCCN)C(=O)OC(C)(C)C"
  TGI: "> 100 µM"
- molecule: "CC(C)(C)OC(=O)NCCNC(=O)OCc1ccccc1"
  TGI: "> 100 µM"
- molecule: "C[N+](C)(C)CC(=O)N/N=C(\\C(=O)Nc1ccc(Cl)cc1)C1C(=O)N(c2ccccc2)N=C1N (stereo not drawn)"
  TGI: "> 100 µM"
- molecule: "C[As](C)SCC(COC(=O)c1ccccc1)OC(=O)c1ccccc1 (stereo not drawn)"
  TGI: "0.232 µM"
- molecule: "C=C(Cl)C(Cl)(CBr)CCC(Cl)C(C)C (stereo not drawn)"
  TGI: "15.2 µM"
- molecule: "CC1CCCC2(O1)OC1CC(=O)OC1C1=C2C(=O)c2ccccc2C1=O (stereo not drawn)"
  TGI: "8.7 µM"
- molecule: "C[Si](C)(C)C1=C2C(=O)c3ccccc3C(=O)C2=C([Si](C)(C)C)[C@@H]2CCCC[C@H]12"
  TGI: "> 100 µM"
- molecule: "C/C(=C1/N=C(c2ccccc2)OC1=O)c1cccs1"
  TGI: "> 100 µM"
- molecule: "C=CC(=O)N1CC[C@@H](Oc2nc(Nc3ccc(N4CCC(N5CCN(C)CC5)CC4)cc3)c(C(N)=O)nc2CC)C1"
  TGI: "> 100 µM"
- molecule: "O=c1n(CCO)nc2n1CCCN2"
  TGI: "> 100 µM"
- molecule: "C=CC(C)(C)c1cc([C@@H]2COc3cc(O)ccc3C2=O)c(O)c(OC)c1OC"
  TGI: "34.3 µM"
- molecule: "C[N+](C)([O-])Cc1cccc(NC(=O)c2ccc(C(=O)Nc3cccc(C[N+](C)(C)[O-])c3)cc2)c1"
  TGI: "> 100 µM"
- molecule: "O=C(/C=C\\c1ccc(Cl)c(Cl)c1)c1ccccc1"
  TGI: "16.9 µM"
